assayed-target: human MAL (human) (UniProt P58753)
protocol-notes: P8 phage display panning on plate-immobilised MAL, after round 4, NGS
measure-name: NGS count (count)

DTKLKKGESIAPELLR = 5620
RNFVAYLFQALANKGI = 28000
KLFWEKFKEFFLPSLSR = 4890

1 = AFLYTFLINLTHPTNF
2 = WFLFTVRSAIYAMSPA
Exercise: Hi! Which is lower in terms of NGS count, the first one 1 or the second one 2 ? Identify your pick by its label.
Key: 2

P = KLIQGWFLYRLLKIEQ
Q = DFLNWFIALKSTVIEN
Exercise: Hi! Which is lower in terms of NGS count, the first one P or the second one Q ? Identify your pick by its label.
Key: Q
(Q: 867 count, P: 2070 count)
